Test system: cultured cells of Taxus baccata LINN
experimentalDetails: Growth rate and taxane yield, 21-day shake culture of Taxus baccata cells with heavy metal compound, amine, antiethylene agent or Ethrel added
Assay type: cell-based
runConditions: 10^−8 M added at start, 21 days
reportedMetric: yield of taxol (mg/L)
Numbers only, in mg/L.

Solved entries:
>>> print(df.to_string())
                         molecule  recordedvalue
0                      NCCCCNCCCN           1.99
1                          NCCCCN           1.52
2  [Cl][Co][Cl] [cobalt chloride]           0.29
3                  NCCCNCCCCNCCCN           1.79

Attention now turns to another entry.
Q. # query: yield of taxol of entry O=S([O-])([O-])=S.[Ag+].[Ag+] [silver thiosulfate, [Ag(S2O3)2]^3−]
A. 0.76

Source: patent US6403343B2
